Test system: E. coli clinical strain E17
Experiment: microbe, parasite or virus in culture
Settings: strain E17
Method: The clinical strains used in this study were obtained from a tertiary healthcare facility located in Guiyang, a city situated within the Guizhou Province of China. The E. coli ATCC 25922 was obtained from the Key and Characteristic Laboratory of Modern Pathogen Biology at Guizhou Medical University in Guiyang, China. […] The MIC were determined by a micro dilution method in Mueller-Hinton broth (MHB) ([Cuenca-Estrella et al., 2010]). […] MIC determination was performed by reading the OD600 nm. […]
experimental_readout: susceptibility category (S/I/R) given with the MIC

- compound: "CO/N=C(\\C(=O)N[C@@H]1C(=O)N2C(C(=O)[O-])=C(C[N+]3(C)CCCC3)CS[C@H]12)c1csc(N)n1 [FEP, cefepime]"
  endpoint_result: "S"
- compound: "CN(C)[C@@H]1C(O)=C(C(N)=O)C(=O)[C@@]2(O)C(O)=C3C(=O)c4c(O)cccc4[C@@](C)(O)[C@H]3C[C@@H]12"
  endpoint_result: "S"
- compound: "C[C@H]1COc2c(N3CCN(C)CC3)c(F)cc3c(=O)c(C(=O)O)cn1c23"
  endpoint_result: "R"
- compound: "C[C@@H](O)[C@H]1C(=O)N2C(C(=O)O)=C(SCCN=CN)C[C@H]12"
  endpoint_result: "S"

----------
Test system: E. coli clinical strain E20
Experiment: microbe, parasite or virus in culture
Conditions: Escherichia coli, 18 h
Below is a list of entries, each paired with its recorded MIC value.

- compound: "C[C@H]1COc2c(N3CCN(C)CC3)c(F)cc3c(=O)c(C(=O)O)cn1c23"
  MIC: "> 8 µg/mL"
- compound: "CN(C)[C@@H]1C(O)=C(C(N)=O)C(=O)[C@@]2(O)C(O)=C3C(=O)c4c(O)cccc4[C@@](C)(O)[C@H]3C[C@@H]12"
  MIC: "≤ 0.5 µg/mL"
- compound: "CO/N=C(\\C(=O)N[C@@H]1C(=O)N2C(C(=O)[O-])=C(C[N+]3(C)CCCC3)CS[C@H]12)c1csc(N)n1 [FEP, cefepime]"
  MIC: "16 µg/mL"
- compound: "C[C@@H](O)[C@H]1C(=O)N2C(C(=O)O)=C(SCCN=CN)C[C@H]12"
  MIC: "≤ 1 µg/mL"

----------
Tested on: E. coli clinical strain E20
Assay: microbe, parasite or virus in culture
Conditions: strain E20
experimental_readout: susceptibility category (S/I/R) given with the MIC

- molecule: "C[C@@H](O)[C@H]1C(=O)N2C(C(=O)O)=C(SCCN=CN)C[C@H]12 [IPM, imipenem]"
  endpoint_result: "S"
- molecule: "CO/N=C(\\C(=O)N[C@@H]1C(=O)N2C(C(=O)[O-])=C(C[N+]3(C)CCCC3)CS[C@H]12)c1csc(N)n1 [FEP, cefepime]"
  endpoint_result: "R"
- molecule: "C[C@H]1COc2c(N3CCN(C)CC3)c(F)cc3c(=O)c(C(=O)O)cn1c23 [LEV, levofloxacin]"
  endpoint_result: "R"
- molecule: "CN(C)[C@@H]1C(O)=C(C(N)=O)C(=O)[C@@]2(O)C(O)=C3C(=O)c4c(O)cccc4[C@@](C)(O)[C@H]3C[C@@H]12 [TET, tetracycline]"
  endpoint_result: "S"

----------
Below is a list of entries, each paired with its recorded MIC value.
System: E. coli clinical strain E09
Test: microbe, parasite or virus in culture
Settings: Escherichia coli, 18 h

- compound: "C[C@@H](O)[C@H]1C(=O)N2C(C(=O)O)=C(SCCN=CN)C[C@H]12"
  MIC: "≤ 1 µg/mL"
- compound: "CN(C)[C@@H]1C(O)=C(C(N)=O)C(=O)[C@@]2(O)C(O)=C3C(=O)c4c(O)cccc4[C@@](C)(O)[C@H]3C[C@@H]12"
  MIC: "> 8 µg/mL"
- compound: "C[C@H]1COc2c(N3CCN(C)CC3)c(F)cc3c(=O)c(C(=O)O)cn1c23"
  MIC: "8 µg/mL"
- compound: "CO/N=C(\\C(=O)N[C@@H]1C(=O)N2C(C(=O)[O-])=C(C[N+]3(C)CCCC3)CS[C@H]12)c1csc(N)n1 [FEP, cefepime]"
  MIC: "≤ 2 µg/mL"
